test_system: T1, FIP3_(206–270), EF-hand pair of Rab11 family-interacting protein 3 (human, UniProt O75154-1 206-270)
T1 construct: Cloned into pMAL-c2X
T1 sequence (looked up): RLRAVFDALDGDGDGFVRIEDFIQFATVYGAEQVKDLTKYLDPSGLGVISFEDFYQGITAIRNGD
assay_explanation: ITC; EF-hand pairs titrated into LIC1_(433–458); 20 mM HEPES (pH 7.5), 100 mM NaCl, 0.5 mM TCEP; 5 mM CaCl2 or 5 mM EGTA as indicated in the figure; 20 or 30 °C
condition_context: both partners purified
pKd: −log10 of the molar value.
attribute_measured: pKd

Quick one: give measured pKd for NMKAGATSEGVLANFFNSLLSKKTGS (peptide, UniProt Q9Y6G9 433-458, looked up, Its concentration was determined with fluorescamine-labeled peptide; also called LIC1 helix; source: peptide after reverse-phase purification) [LIC1_(433–458), amphipathic helix of the dynein light intermediate chain-1]
~5.70
